Provenance of the data: paper PMC6222718

# melting point values compiled below
readoutType: melting point

compound	readoutType	reportedValue
C=C(C)C1CC[C@]2(C(=O)NCCOCCN)CC[C@]3(C)C(CCC4[C@@]5(C)CC[C@H](OC(C)=O)C(C)(C)C5CC[C@]43C)C12 (stereo partly drawn)	melting point	109 to 112 °C
CC(=O)O[C@H]1CC[C@@]2(C)C(CC[C@]3(C)C2CC=C2C4[C@@H](C)[C@H](C)CC[C@]4(C(=O)NCCN4CCNCC4)CC[C@]23C)C1(C)C (stereo partly drawn)	melting point	145 to 147 °C
C=C(C)C1CC[C@]2(C(=O)NCCN3CCCC3)CC[C@]3(C)C(CCC4[C@@]5(C)CC[C@H](OC(C)=O)C(C)(C)C5CC[C@]43C)C12 (stereo partly drawn)	melting point	143 to 145 °C
CC(=O)O[C@H]1CC[C@@]2(C)C(CC[C@]3(C)C2CC=C2C4[C@@H](C)[C@H](C)CC[C@]4(C(=O)NCCN4CCCCC4)CC[C@]23C)C1(C)C (stereo partly drawn)	melting point	124 to 127 °C
C[C@@H]1CC[C@]2(C(=O)NCCN3CCCCC3)CC[C@]3(C)C(=CCC4[C@@]5(C)CC[C@H](O)C(C)(C)C5CC[C@]43C)C2[C@H]1C (stereo partly drawn)	melting point	120 to 124 °C
CC(=O)O[C@H]1CC[C@@]2(C)C(CC[C@]3(C)C2CC=C2C4[C@@H](C)[C@H](C)CC[C@]4(C(=O)NCCCCN)CC[C@]23C)C1(C)C (stereo partly drawn)	melting point	117 to 120 °C
C=C(C)C1CC[C@]2(C(=O)NCCN3CCNCC3)CC[C@]3(C)C(CCC4[C@@]5(C)CC[C@H](O)C(C)(C)C5CC[C@]43C)C12 (stereo partly drawn)	melting point	146 to 148 °C (dec.)
C=C(C)C1CC[C@]2(C(=O)NCCOCCN)CC[C@]3(C)C(CCC4[C@@]5(C)CC[C@H](O)C(C)(C)C5CC[C@]43C)C12 (stereo partly drawn)	melting point	182 to 183 °C
C[C@@H]1CC[C@]2(C(=O)NCCN(C)C)CC[C@]3(C)C(=CCC4[C@@]5(C)CC[C@H](O)C(C)(C)C5CC[C@]43C)C2[C@H]1C (stereo partly drawn)	melting point	270 to 273 °C (dec.)
C=C(C)C1CC[C@]2(C(=O)NCCN(C)C)CC[C@]3(C)C(CCC4[C@@]5(C)CC[C@H](OC(C)=O)C(C)(C)C5CC[C@]43C)C12 (stereo partly drawn)	melting point	108 to 110 °C
CC(=O)O[C@H]1CC[C@@]2(C)C(CC[C@]3(C)C2CC=C2C4[C@@H](C)[C@H](C)CC[C@]4(C(=O)NCCN(C)C)CC[C@]23C)C1(C)C (stereo partly drawn)	melting point	121 to 124 °C
C[C@@H]1CC[C@]2(C(=O)NCCOCCN)CC[C@]3(C)C(=CCC4[C@@]5(C)CC[C@H](O)C(C)(C)C5CC[C@]43C)C2[C@H]1C (stereo partly drawn)	melting point	126 to 129 °C
